EXPERIMENTAL PROTOCOL: ATG_BRE_CIS: Attagene CIS-FACTORIAL HepG2 Assay for human Bone Morphogenetic Protein (BMP) Response Element (BRE) (AID 2282933)
DETAILS: HepG2 BMP response element reporter, Attagene transcription factor profiling; actives raise or lower the signal
Calls of active or inactive are those of the source. Rule for the calls: active = hit-call score of the fitted dose curve at least 0.9, where 1 is the maximum; inactive = score below 0.9.
RECORDED METRIC: outcome

compound=Clc1ccc(C(c2ccc(Cl)cc2)C(Cl)(Cl)Cl)cc1 recorded_metric=outcome measured_result=inactive
compound=[O-][Cl+]O recorded_metric=outcome measured_result=inactive
compound=Nc1ccc(Cc2ccc(N)cc2)cc1 recorded_metric=outcome measured_result=inactive
compound=c1ccc2c(c1)oc1ccccc12 recorded_metric=outcome measured_result=inactive
compound=Oc1ccccc1Cl recorded_metric=outcome measured_result=inactive
compound=CCCCOC(=O)c1ccccc1C(=O)OCc1ccccc1 recorded_metric=outcome measured_result=inactive
compound="CC(O)CCO (configuration not stated)" recorded_metric=outcome measured_result=inactive
compound=CCCCCCCCOC(=O)c1ccc(C(=O)OCCCCCCCC)c(C(=O)OCCCCCCCC)c1 recorded_metric=outcome measured_result=inactive
compound=CNC(=O)Oc1cccc2c1OC(C)(C)C2 recorded_metric=outcome measured_result=inactive
compound=[As]#[In] recorded_metric=outcome measured_result=inactive
compound=CCC[CH2][Sn]([Cl])([CH2]CCC)[CH2]CCC recorded_metric=outcome measured_result=inactive
compound="ClC1=C(Cl)C2(Cl)C3C(Cl)C=CC3C1(Cl)C2(Cl)Cl (configuration not stated)" recorded_metric=outcome measured_result=inactive

---

Read-out: Bcl-2 (BID) gene, BID (gene 637)
EXPERIMENTAL PROTOCOL: LTEA_HepaRG_BID: Life Technologies and Expression Analysis (LTEA) Assay for Bcl-2 (BID) gene using HepaRG (AID 2283476)
DETAILS: mRNA level, 48 h; actives raise or lower the signal
Calls of active or inactive are those of the source. Rule for the calls: active = hit-call score of the fitted dose curve at least 0.9, where 1 is the maximum; inactive = score below 0.9.
RECORDED METRIC: outcome

molecule=O=C(N[C@H](c1ccccc1)[C@@H]1CN2CCC1CC2)c1c(Cl)ccc(C(F)(F)F)c1Cl recorded_metric=outcome measured_result=inactive
molecule="ClC1=C(Cl)C2(Cl)C3C(Cl)C=CC3C1(Cl)C2(Cl)Cl (stereo not given)" recorded_metric=outcome measured_result=inactive
molecule=Cn1cc(-c2ccccc2)c(=O)c(-c2cccc(C(F)(F)F)c2)c1 recorded_metric=outcome measured_result=inactive
molecule=COP(=S)(OC)SCN1C(=O)c2ccccc2C1=O recorded_metric=outcome measured_result=inactive
molecule=CN(C)[C@@H]1C(=O)C(C(N)=O)=C(O)[C@@]2(O)C(=O)C3=C(O)c4c(O)cccc4[C@@](C)(O)[C@H]3C[C@@H]12 recorded_metric=outcome measured_result=inactive
molecule=Clc1ccc(C(c2ccc(Cl)cc2)C(Cl)Cl)cc1 recorded_metric=outcome measured_result=inactive
molecule=N#CC(Br)Br recorded_metric=outcome measured_result=inactive
molecule=Nc1ccc(Cc2ccc(N)cc2)cc1 recorded_metric=outcome measured_result=inactive
molecule=c1ccc2c(c1)-c1cccc3cccc-2c13 recorded_metric=outcome measured_result=inactive
molecule="O=C(O)C1C2CCC(O2)C1C(=O)O (stereo not given)" recorded_metric=outcome measured_result=inactive
molecule=c1ccc2c(c1)oc1ccccc12 recorded_metric=outcome measured_result=inactive
molecule="CCC(C)c1ccc(O)cc1 (stereo not given)" recorded_metric=outcome measured_result=inactive
molecule="C[N+](C)(C)CC1CO1 (stereo not given)" recorded_metric=outcome measured_result=inactive
molecule="c1ccc(C2CO2)cc1 (stereo not given)" recorded_metric=outcome measured_result=inactive
molecule=N#CC(Br)(Br)C(N)=O recorded_metric=outcome measured_result=inactive
